Task for the reader: assign each of the following substances its reported Migratory Index.
# Tested on: MDA-MB-231 cells (CD44+ human breast adenocarcinoma cells)
# EXPERIMENT DESCRIPTION: Chemotactic chamber (Boyden) assay, migration through polycarbonate filters
# Type: cell-based
# SETTINGS: Table 3; cells migrating in response to peptide/cells migration in response to LVLDPK
# Method: Each peak was then tested for mediation of chemotaxis or for its ability to inhibit OPN mediated chemotaxis using the chemotactic assay as follows (see e.g., Weber et al. (1996) Science 271:509-512). […] Cells which have responded to the peptide, migrate to various areas of the lower surface and can be counted microscopically. […] Peptide 51 was identified as being chemotactic. The peptide was sequenced using a gas-phase sequenator and determined to have the sequence LVLDPK (SEQ ID NO:1). […]
Returns: the value as a bare number; no unit string appended.

Entry LVLDEK (OTHER INFORMATION: Description of Artificial Sequence:Synthetic Peptide) [pepE] has what Migratory Index?
0.2

Param item: LVLDPK (OTHER INFORMATION: Description of Artificial Sequence:Synthetic Peptide) [peptide 51, chemotactic tryptic peptide of osteopontin]
1

Param item: VLDPK (OTHER INFORMATION: Description of Artificial Sequence:Synthetic Peptide) [pepF]
0.7

Param item: KFHSHKDKLVLDPKSK (OTHER INFORMATION: Description of Artificial Sequence:Synthetic Peptide) [SP64]
1

Param item: LVPDPK (OTHER INFORMATION: Description of Artificial Sequence:Synthetic Peptide) [pepB]
1

Param item: LELDPK (OTHER INFORMATION: Description of Artificial Sequence:Synthetic Peptide) [pepH]
0.3

Param item: LVIDPK (OTHER INFORMATION: Description of Artificial Sequence:Synthetic Peptide) [pepD]
1

Param item: LVLDPA (OTHER INFORMATION: Description of Artificial Sequence:Synthetic Peptide) [pepK]
0.1
